Tested on: MCF7
Protocol Summary: NCI tumour cell line growth inhibition, 48 h
The source made the active and inactive calls. No stated cut-off is given here; in the data, active = GI50 up to about 1.1 µM and inactive = higher.
Would you mind answering with one of these outcomes? label 1 = active, label 0 = inactive

{"Compound": "CC(=O)c1ccc(NCc2cc(O)ccc2O)cc1", "Category Label": "label 0"}

Could you now look at the following compound, please?
Could you kindly confirm the outcome this assay logged for CC1Cc2c(cc(N)nc2Br)NC1=O (stereo unspecified) ?
label 0

---

Test system: ACHN
Protocol Summary: NCI tumour cell line growth inhibition, 48 h
The source made the active and inactive calls. Cut-off read from the data, not from the text of the source: active = GI50 up to about 1.1 µM and inactive = higher.
Endpoint: GI50

// worked examples, GI50 included
{"Compound": "CCc1n[nH]c(=O)n1/N=C/c1ccccc1O", "GI50": "> 100 µM (inactive)"}
{"Compound": "CC(=O)c1ccc(NCc2cc(O)ccc2O)cc1", "GI50": "18.5 µM (inactive)"}
{"Compound": "CC(=O)OCc1nnn2c1CCC2", "GI50": "> 100 µM (inactive)"}
{"Compound": "CN(C)c1ccc(/C=C2\\C=Cc3ccccc32)cc1", "GI50": "> 100 µM (inactive)"}
{"Compound": "C#CC1(O)CCC2[C@@H]3CCc4cc(Oc5nc(F)nc(-c6c7ccccc7cn6C)n5)ccc4C3CC[C@@]21C (stereo not given in full)", "GI50": "> 100 µM (inactive)"}
{"Compound": "CC(C)(CN1CCOCC1)C(=O)/C=C/c1ccc(/C=C/C(=O)C(C)(C)CN2CCOCC2)cc1", "GI50": "1.52 µM (inactive)"}
{"Compound": "N/N=C(\\C(=O)Nc1ccc(Cl)cc1Cl)C(c1cnc2ccccc2n1)[N+](=O)[O-] (stereo not given)", "GI50": "71.1 µM (inactive)"}
{"Compound": "O=C(O)C(F)(OC(F)(F)C(F)(OC(F)(F)C(F)(F)C(F)(F)F)C(F)(F)F)C(F)(F)F (stereo not given)", "GI50": "> 100 µM (inactive)"}
{"Compound": "CN1N=CSC12C(=O)N(c1ccc(Cl)cc1)C(=O)N2c1ccc(Cl)cc1 (stereo not given)", "GI50": "2.77 µM (inactive)"}

Here is another compound to look at.
Please give the measured GI50 for this compound: O=C1C(O)=C(C(CCc2ccccc2)C2=C(O)C(=O)c3ccccc3C2=O)C(=O)c2ccccc21
65.9 µM (inactive)

---

Listed here are compounds together with their documented GI50.
Test system: BT-549
Protocol Summary: NCI tumour cell line growth inhibition, 48 h
Activity calls are given as the source filed them. No stated cut-off is given here; in the data, active = GI50 up to about 1.1 µM and inactive = higher.

// worked examples, GI50 included
{"Compound": "O=C(O)CCNc1ccccc1C(=O)O", "Target Or System": "BT-549", "GI50": "> 100 µM (inactive)"}
{"Compound": "O=C(O)CNC(=O)C(CSC(=O)OCC1c2ccccc2-c2ccccc21)NC(=O)CCC(NC(=O)OCC1c2ccccc2-c2ccccc21)C(=O)O (stereo not given)", "Target Or System": "BT-549", "GI50": "> 100 µM (inactive)"}
{"Compound": "O=[N+]([O-])c1cc(-c2ccc([As](=O)(O)O)cc2)ccc1[As](=O)(O)O", "Target Or System": "BT-549", "GI50": "> 100 µM (inactive)"}
{"Compound": "CC(=O)Nc1oc(C)c(C)c1S(=O)(=O)c1ccc(Cl)cc1", "Target Or System": "BT-549", "GI50": "29.2 µM (inactive)"}
{"Compound": "O=[N+]([O-])c1c(F)c(F)c2c(c1F)N(CCCCCl)c1ccccc1S2", "Target Or System": "BT-549", "GI50": "14.6 µM (inactive)"}
{"Compound": "CCOC(OCC)C(CCc1ccccc1)c1c(N)nc(N)[nH]c1=O (stereo not given)", "Target Or System": "BT-549", "GI50": "86.9 µM (inactive)"}

Please give the measured GI50 for this compound: O=c1ccs[nH]1
16.8 µM (inactive)

Please answer likewise for CC1=NNC(=S)NCCCN2CCN(CCCNC(=S)NN=C(C)C=NNC(=S)NCCCN3CCN(CCCNC(=S)NN=C1)CC3)CC2
> 100 µM (inactive)

Please answer likewise for C#Cc1cc(-c2nc3ccccc3s2)ccc1N
20 µM (inactive)

Please answer likewise for Cc1ccc(O)c(-c2cc(-c3cccc(Br)c3)c(C#N)c(N)n2)c1
37.2 µM (inactive)

---

Test system: A498
Protocol Summary: NCI tumour cell line growth inhibition, 48 h
Active and inactive are the calls of the source. Rule as the data show it: active = GI50 up to about 1.1 µM and inactive = higher.
Would you mind answering with one of these outcomes? y (active), n (inactive)

Some solved cases for reference:
{"Compound": "CCOC(=O)C1=c2[nH]c3cccc4cccc(c43)n2C(=O)CC1", "Category Label": "n"}
{"Compound": "Nc1nc(-c2cccnc2)cc(-c2cc(-c3cccnc3)nc(N)n2)n1", "Category Label": "n"}
{"Compound": "CCN(CC)c1nnc(CCCCCCCCc2nnc(N(CC)CC)o2)o1", "Category Label": "n"}

Could you kindly confirm the outcome this assay logged for COc1ccc2c(c1)C(=O)/C(=C/c1ccccc1)C2 ?
n

Please answer likewise for CCOC(=O)NC(C(F)(F)F)(C(F)(F)F)P(=O)(OCC(C)C)OCC(C)C
n

---

Listed here are compounds together with their documented GI50.
System: SW-620
Protocol Summary: NCI tumour cell line growth inhibition, 48 h
Active and inactive are the calls of the source. No stated cut-off is given here; in the data, active = GI50 up to about 1.1 µM and inactive = higher.

// worked examples, GI50 included
{"Compound": "CCOC(=O)NC(=O)c1cn(CCCOC(=O)CCCCCCCCC(=O)OCCCn2cc(C(=O)NC(=O)OCC)c(=O)n(C)c2=O)c(=O)n(C)c1=O", "Endpoint": "GI50", "Assay Result": "> 92 µM (inactive)"}
{"Compound": "O=C1C(O)=C(C(CCc2ccccc2)C2=C(O)C(=O)c3ccccc3C2=O)C(=O)c2ccccc21", "Endpoint": "GI50", "Assay Result": "47.5 µM (inactive)"}
{"Compound": "COc1ccc2cc(NC(=O)N/N=C\\c3ccc([N+](=O)[O-])cc3)ccc2c1", "Endpoint": "GI50", "Assay Result": "> 100 µM (inactive)"}
{"Compound": "O=C1NC(N2CCCCC2)=N/C1=C\\c1cccs1", "Endpoint": "GI50", "Assay Result": "> 100 µM (inactive)"}

Please give the measured GI50 for this compound: C/C(=C\CBr)CCC(Br)C(C)(C)Br (stereo not given)
> 100 µM (inactive)

---

Tested on: ACHN
Protocol Summary: NCI tumour cell line growth inhibition, 48 h
The source made the active and inactive calls. Cut-off read from the data, not from the text of the source: active = GI50 up to about 1.1 µM and inactive = higher.
Would you mind answering with one of these outcomes? active, inactive

{"Compound": "CCOc1ccc(NC(=O)C(=O)C(C(=O)c2ccc3ccccc3c2)C2OC(=O)c3ccccc32)cc1 (centres undefined)", "Category Label": "inactive"}
{"Compound": "Cc1cc(N(CCC#N)CCC#N)ccc1/C=C1N=C(/C=C\\c2ccccc2)OC\\1=O", "Category Label": "inactive"}
{"Compound": "COC(=O)c1cc(Cl)ccc1NC(=O)c1ccc([N+](=O)[O-])cc1", "Category Label": "inactive"}
{"Compound": "CCOCN/C(N)=N\\C#N", "Category Label": "inactive"}
{"Compound": "CC1=NN(c2ccc(S(=O)(=O)O)cc2)C2(C1)SCC(=O)N2c1nc2ccccc2s1 (centres undefined)", "Category Label": "inactive"}

Could you kindly confirm the outcome this assay logged for CC(NC(=O)C(N)Cc1ccc(O)cn1)C(=O)O (centres undefined) ?
inactive

Please answer likewise for N=C(NNS(=O)(=O)c1ccccc1)Oc1ccc(Br)cc1Br
inactive

Please answer likewise for COc1ccc(/C=C2/C(=O)C(c3ccccc3)N(c3ccccc3)C2=O)cc1OC (centres undefined)
inactive

---

Test system: K562
Protocol Summary: NCI tumour cell line growth inhibition, 48 h
Activity calls are given as the source filed them. Rule as the data show it: active = GI50 up to about 1.1 µM and inactive = higher.
Would you mind answering with one of these outcomes? y for active, n for inactive

Some solved cases for reference:
{"Compound": "C=C1C(=O)C23C(O)C1CCC2C12CO[C@]3(O)[C@@H](O)C1C(C)(C)CCC2O (stereo not given in full)", "Category Label": "n"}
{"Compound": "CC(=O)NC1C(OCc2ccccc2)OC(CO)C(O)C1OC(C)C(=O)NC(C(=O)NC(CCC(=O)NCCCCNc1c2ccccc2nc2cccc([N+](=O)[O-])c12)C(N)=O)C(C)C (stereo not given)", "Category Label": "y"}
{"Compound": "CN(C)c1n2c3cc([N+](=O)[O-])ccc3[n+]3c(N(C)C)n4ccccc4c3c2c2cccc[n+]12.[O-][Cl+3]([O-])([O-])[O-].[O-][Cl+3]([O-])([O-])[O-]", "Category Label": "n"}
{"Compound": "CC(=O)c1ccc(NCc2cc(O)ccc2O)cc1", "Category Label": "n"}

Could you kindly confirm the outcome this assay logged for C#CC1(O)CCC2[C@@H]3CCc4cc(Oc5nc(F)nc(-c6c7ccccc7cn6C)n5)ccc4C3CC[C@@]21C (stereo not given in full) ?
n

Please answer likewise for CCOC(=O)C(Cc1ccc(OC(=O)c2ccc(OC)cc2OC)cc1)NC(=O)C(F)(F)F (stereo not given)
n

Please answer likewise for COc1ccc(-c2cc(-c3ccco3)c(C#N)c(=S)n2C2OC(COC(C)=O)C(OC(C)=O)C(OC(C)=O)C2OC(C)=O)cc1 (stereo not given)
n

Please answer likewise for CN1CN(c2ccccc2)C2(CCN(C3Nc4ccccc4O3)CC2)C1=O (stereo not given)
n

Please answer likewise for CCOC(=O)NC(C(F)(F)F)(C(F)(F)F)P(=O)(OCC(C)C)OCC(C)C
n
